- ASSAY TARGET: KIT kinase (Homo sapiens (Human))
- Sequence (P10721 26-976): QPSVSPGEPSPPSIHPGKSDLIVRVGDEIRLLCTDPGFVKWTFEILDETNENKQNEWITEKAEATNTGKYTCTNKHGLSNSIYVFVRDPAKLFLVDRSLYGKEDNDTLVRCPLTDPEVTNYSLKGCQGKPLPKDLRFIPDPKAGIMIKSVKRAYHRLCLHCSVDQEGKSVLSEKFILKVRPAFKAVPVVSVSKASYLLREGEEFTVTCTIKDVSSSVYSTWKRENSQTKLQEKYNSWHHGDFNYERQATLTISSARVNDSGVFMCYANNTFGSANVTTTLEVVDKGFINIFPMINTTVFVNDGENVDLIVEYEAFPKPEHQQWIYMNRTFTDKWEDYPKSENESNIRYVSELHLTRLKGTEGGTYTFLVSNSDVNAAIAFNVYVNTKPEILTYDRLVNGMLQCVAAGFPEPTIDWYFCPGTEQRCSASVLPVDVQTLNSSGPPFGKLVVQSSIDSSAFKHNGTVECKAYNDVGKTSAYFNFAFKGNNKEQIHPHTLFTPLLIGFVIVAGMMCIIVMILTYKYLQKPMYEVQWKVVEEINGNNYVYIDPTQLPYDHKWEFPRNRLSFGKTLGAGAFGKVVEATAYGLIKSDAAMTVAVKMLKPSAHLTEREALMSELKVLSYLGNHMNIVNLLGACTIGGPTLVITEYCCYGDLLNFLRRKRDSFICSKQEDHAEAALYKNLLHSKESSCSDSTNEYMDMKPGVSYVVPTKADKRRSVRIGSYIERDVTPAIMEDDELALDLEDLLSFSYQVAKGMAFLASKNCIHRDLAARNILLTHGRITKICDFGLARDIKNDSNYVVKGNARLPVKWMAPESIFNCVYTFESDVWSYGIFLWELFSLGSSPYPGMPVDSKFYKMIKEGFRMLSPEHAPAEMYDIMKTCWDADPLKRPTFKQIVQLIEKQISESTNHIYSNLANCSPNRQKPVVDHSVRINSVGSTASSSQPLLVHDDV
- PROTOCOL SUMMARY: Competition binding assay (Kd), KIT
- CONDITION PARAMETERS: competition binding assay
VALUE TYPE: Kd

Below: 6 compounds and their reported Kd.
COMPOUND	Kd
COc1cc2nc(CO)c(-c3ccc(CC(=O)Nc4cc(C5(C(F)(F)F)CC5)on4)c(F)c3)nc2cc1OC	< 5 nM
O=C(Cc1ccc(-c2cnc3[nH]c(C(=O)NC4CNC4)cc3c2)cc1F)Nc1cc(C2(C(F)(F)F)CC2)on1	< 5 nM
O=C(Cc1ccc(-c2cnc3cc4c(cc3n2)OCO4)cc1F)Nc1cc(C2(C(F)(F)F)CC2)on1	< 5 nM
COc1cc2nc(OC)c(-c3ccc(CC(=O)Nc4cc(C5(C(F)(F)F)CC5)on4)c(F)c3)nc2cc1OC	5 to 20 nM
COc1cc2cc(-c3ccc(CC(=O)Nc4cc(C5(C(F)(F)F)CC5)on4)c(F)c3)cnc2cc1OCCO	< 5 nM
COc1cc2ncc(-c3ccc(CC(=O)Nc4cc(C(C)(C)C(F)(F)F)on4)c(F)c3)c(N)c2cc1OC	5 to 20 nM

Please give measured Kd of the following entry: `COc1cc2nc(Cl)c(-c3ccc(CC(=O)Nc4cc(C5(C(F)(F)F)CC5)on4)c(F)c3)nc2cc1OC`
< 5 nM

Please give measured Kd of the following entry: `COc1cc2nc(O)c(-c3ccc(CC(=O)Nc4cc(C5(C(F)(F)F)CC5)on4)c(F)c3)nc2cc1OC`
< 5 nM

Please give measured Kd of the following entry: `COc1cc2ncc(-c3ccc(CC(=O)Nc4cc(C(C)(C)C(F)(F)F)n[nH]4)c(F)c3)nc2cc1OC`
< 5 nM

Please give measured Kd of the following entry: `O=C(Cc1ccc(-c2cnc3ccsc3c2)cc1)Nc1cc(C2(C(F)(F)F)CC2)on1`
< 5 nM

Please give measured Kd of the following entry: `COc1cc2ncc(-c3ccc(CC(=O)Nc4cc(C5(C(F)(F)F)CC5)nn4C)c(F)c3)nc2cc1OC`
< 5 nM

Please give measured Kd of the following entry: `COc1cc2cc(-c3ccc(CC(=O)Nc4cc(C(C)(C)C(F)(F)F)on4)c(F)c3)cnc2cc1OCCO`
< 5 nM

Please give measured Kd of the following entry: `COc1cc2nc(-c3ccc(CC(=O)Nc4cc(C5(C(F)(F)F)CC5)on4)c(F)c3)cnc2cc1OCCN1CCC(F)(F)C1`
< 5 nM

Please give measured Kd of the following entry: `COc1cc2ncc(-c3ccc(CC(=O)Nc4cc(C(C)(C)C(F)(F)F)on4)cc3)nc2cc1OC`
< 5 nM

Please give measured Kd of the following entry: `COc1cc2ncc(-c3ccc(CC(=O)Nc4cc(C(C)(C)C(F)(F)F)nn4C)c(F)c3)nc2cc1OC`
< 5 nM

Please give measured Kd of the following entry: `COc1cc2nc(-c3ccc(CC(=O)Nc4cc(C5(C(F)(F)F)CC5)on4)c(F)c3)cnc2cc1OCCN=[N+]=[N-]`
< 5 nM

Please give measured Kd of the following entry: `CN(C)CCCN(C)C(=O)c1cc2cc(-c3ccc(CC(=O)Nc4cc(C(C)(C)C)on4)cc3)cnc2[nH]1`
< 5 nM

Please give measured Kd of the following entry: `COc1cc2nc(C)c(-c3ccc(CC(=O)Nc4cc(C5(C(F)(F)F)CC5)on4)c(F)c3)nc2cc1OC`
< 5 nM

Please give measured Kd of the following entry: `COc1cc2ncc(-c3ccc(CC(=O)Nc4cc(C(C)(C)C)n[nH]4)c(F)c3)nc2cc1OC`
< 5 nM

Please give measured Kd of the following entry: `O=C(Cc1ccc(-c2cnc3cc4c(cc3n2)OCCO4)cc1F)Nc1cc(C2(C(F)(F)F)CC2)on1`
5 to 20 nM

Please give measured Kd of the following entry: `CCN1CC(Oc2cc3ncc(-c4ccc(CC(=O)Nc5cc(C(C)(C)C(F)(F)F)on5)c(F)c4)nc3cc2OC)C1`
< 5 nM

Please give measured Kd of the following entry: `O=C(Cc1ccc(-c2cnc3[nH]nc(OCC(F)F)c3c2)cc1F)Nc1cc(C2(C(F)(F)F)CC2)on1`
< 5 nM

Please give measured Kd of the following entry: `COc1cc2ncc(-c3ccc(CC(=O)Nc4cc(C5(C(F)(F)F)CC5)nn4C(C)(C)C)c(F)c3)nc2cc1OC`
> 50 nM

Please give measured Kd of the following entry: `COc1cc2nc(C(=O)O)c(-c3ccc(CC(=O)Nc4cc(C5(C(F)(F)F)CC5)on4)c(F)c3)nc2cc1OC`
> 50 nM

Please give measured Kd of the following entry: CN(C)C1CCN(C(=O)c2cc3cc(-c4ccc(CC(=O)Nc5cc(C6(C(F)(F)F)CC6)on5)c(F)c4)cnc3[nH]2)C1 (stereo not shown)
< 5 nM
